- assayProcedure: phase 1 plasma pharmacokinetics, Cycle 1 Days 1 and 15
- Assay type: in vivo, human
- reportedConditions: human, plasma, po, 200 mg, 200 mg BID oral, n = 3, Day 15; read-out: AUC0–12h, GM (CV %)
reportedProperty: AUC(0-t) (ng·h/mL)
Just the number please, in ng·h/mL, no unit attached.

Prompt line: Consider the compound `CNC(=O)c1ccc(Nc2ncc(C(F)(F)F)c(NCc3nccnc3N(C)S(C)(=O)=O)n2)cc1` . State its measured AUC(0-t).
Response line: 6240

---

- assayProcedure: phase 1 plasma pharmacokinetics, Cycle 1 Days 1 and 15
- Format: in vivo, human
- reportedConditions: human, plasma, po, 600 mg, 600 mg BID oral, n = 3, Day 1; read-out: T max, median (range)
reportedProperty: Tmax (h)
The response must be a number in h with no trailing unit.

Prompt line: Identify measured Tmax corresponding to `CNC(=O)c1ccc(Nc2ncc(C(F)(F)F)c(NCc3nccnc3N(C)S(C)(=O)=O)n2)cc1`
Response line: 2

---

- assayProcedure: phase 1 plasma pharmacokinetics, Cycle 1 Days 1 and 15
- Format: in vivo, human
- reportedConditions: human, plasma, po, 600 mg, 600 mg BID oral, n = 3, Day 15; read-out: T max, median (range)
- Protocol: Pharmacokinetic samples were to be collected for determination of VS-6063 concentration and potential metabolites at the time points of Pre-dose (within 30 min of VS-6063 dosing), postdose (15 min, 30 min, and 1, 2, 4, 8, 12, and 24 h after VS-6063 administration) during Cycle 1 on Days 1 and 15. The analytical laboratory measured plasma concentrations using a validated method. […] Cmax and Tmax were determined by direct assessment (no calculations) of the concentration versus time data. […]
reportedProperty: Tmax (h)
All answers are understood in h, so give the number only.

Prompt line: Entry `CNC(=O)c1ccc(Nc2ncc(C(F)(F)F)c(NCc3nccnc3N(C)S(C)(=O)=O)n2)cc1` needs its Tmax filled in; supply it.
Response line: 2

---

- assayProcedure: phase 1 plasma pharmacokinetics, Cycle 1 Days 1 and 15
- Type: in vivo, human
- reportedConditions: human, plasma, po, oral doses of 200–600 mg BID, all cohorts; read-out: median Tmax
reportedProperty: Tmax (h)
Field: numeric (h). Do not append units.

Prompt line: Let me know recorded Tmax for `CNC(=O)c1ccc(Nc2ncc(C(F)(F)F)c(NCc3nccnc3N(C)S(C)(=O)=O)n2)cc1` , thanks.
Response line: 2

---

- assayProcedure: phase 1 plasma pharmacokinetics, Cycle 1 Days 1 and 15
- Format: in vivo, human
- reportedConditions: human, plasma, po, 400 mg, 400 mg BID oral, n = 3, Day 15
- Procedure: Pharmacokinetic samples were to be collected for determination of VS-6063 concentration and potential metabolites at the time points of Pre-dose (within 30 min of VS-6063 dosing), postdose (15 min, 30 min, and 1, 2, 4, 8, 12, and 24 h after VS-6063 administration) during Cycle 1 on Days 1 and 15. The analytical laboratory measured plasma concentrations using a validated method. […] Cmax and Tmax were determined by direct assessment (no calculations) of the concentration versus time data. […]
reportedProperty: Cmax (µg/mL)
Form entry: value (µg/mL) — number only.

Prompt line: Find the measured Cmax of `CNC(=O)c1ccc(Nc2ncc(C(F)(F)F)c(NCc3nccnc3N(C)S(C)(=O)=O)n2)cc1` and report it.
Response line: 0.96

Hello, the source for this data is paper PMC4844649, in case you need it.
